system: MDA-MB-231; experiment: NCI tumour cell line growth inhibition, 48 h
The source made the active and inactive calls. Rule as the data show it: active = GI50 up to about 1.1 µM and inactive = higher.
I would appreciate it if you answered using one of these outcomes: Yes for active, No for inactive

Recorded test outcome, item O=C(O)C1(CC(CCCN2CCCCC2)c2ccccc2)CCCC1 (stereo not given)
No

Recorded test outcome, item ClC1(Cl)C(c2ccccc2)C1c1ccccc1 (stereo not given)
No

Recorded test outcome, item Nc1ccc(C2(c3ccc(N)cc3)C3CC4CC(C3)CC2C4)cc1
No

Recorded test outcome, item CS/C(=N\Nc1cnc2ccccc2n1)NS(=O)(=O)c1cc(C)c(Cl)cc1Cl
No

Recorded test outcome, item CC(=O)OC1COC(Nc2nc(NCc3ccccc3)n(C)c(=O)c2N=O)C(OC(C)=O)C1OC(C)=O (stereo not given)
No

Recorded test outcome, item CCOc1ccc(N/C(=C(/C(Cl)=C(/Cl)NCCO)[N+](=O)[O-])n2nnc3ccccc32)cc1
No

Recorded test outcome, item CC1(C)N=c2c(ncn2-c2ccccc2)=C(C(N)=O)N1
No

Recorded test outcome, item OCC(O)COCn1nncc1Cn1ncc2c(SCc3ccccc3)ncnc21 (stereo not given)
No

Recorded test outcome, item C[C@H]1CCC/C=C/[C@@H]2C[C@H](OC(=O)CN(C)C)C[C@H]2[C@H](O)/C=C/C(=O)O1
Yes

Recorded test outcome, item COC(=O)c1ccc(C)cc1C1CN=NC12Cc1cc(C)ccc1C2=O (stereo not given)
No

Recorded test outcome, item CC1=NN2C(=O)CC(=O)N=C2S1
No

Recorded test outcome, item S=C(N/N=C/c1ccccn1)Nc1ccc(Cl)cc1
Yes

Recorded test outcome, item C=Cc1c(C)c(OC)cc2c1Oc1ccc(OC)c(C)c1CC2
No

Recorded test outcome, item COc1cc(C2S/C(=C/c3ccccc3)C(=O)N2c2ccc(Cl)cc2)cc(OC)c1OC (stereo not given)
No

Recorded test outcome, item CCN(CC)CCN(C(=O)c1ccc(F)cc1)c1ccccc1N
No

Recorded test outcome, item Cc1ccc(-c2n[nH]c(=O)[nH]2)cc1
No

Recorded test outcome, item CC1=CCC(C(C)(C)NC(=O)c2ccccc2)C/C1=N/O (stereo not given)
No

Recorded test outcome, item NCCCCN(CCCN)Cc1ccccc1
No

Recorded test outcome, item COc1ccc(-c2c(C#N)c(=O)nc(SC)n2C2OCC(OC(C)=O)C(OC(C)=O)C2OC(C)=O)cc1 (stereo not given)
No

Recorded test outcome, item Cc1cn2c(/C=N/NC(=N)N)c(-c3cccc([N+](=O)[O-])c3)nc2s1
No

---

test system: 786-0; assay: NCI tumour cell line growth inhibition, 48 h
Activity calls are given as the source filed them. No stated cut-off is given here; in the data, active = GI50 up to about 1.1 µM and inactive = higher. Where a SMILES comes first, the peptide text is derived from it. [ ]: non-standard residue; d: D form. The star is where a group is joined. ξ: configuration not given here. NMeF = CN[C@@H](Cc1ccccc1)C(=O)O; NMeV = CN[C@H](C(=O)O)C(C)C; ξNMeN = CNC(CC(N)=O)C(=O)O; NMeA = CN[C@@H](C)C(=O)O; ξNMeV = CNC(C(=O)O)C(C)C; Boc = CC(C)(C)OC(=O)*
Endpoint: GI50

Which GI50 is listed for CCCn1c(C23CC4CC(CC(C4)C2)C3)nc2ccc(Cl)cc2c1=O ?
34.2 µM (inactive)

Which GI50 is listed for Cc1cnc2nc(-c3sccc3C)cc(O)c2c1 ?
4.1 µM (inactive)

Which GI50 is listed for O=C1NC2(CCN(CCc3ccccc3)CC2)Oc2ccccc21 ?
> 100 µM (inactive)

Which GI50 is listed for COC(=O)[C@H](C)N(C)C(=O)C(CC(N)=O)N(C)C(=O)[C@H](Cc1ccccc1)N(C)C(=O)[C@@H]1CCCN1C(=O)[C@H](C(C)C)N(C)C(=O)C(C(C)C)N(C)C(=O)[C@@H](NC(=O)OC(C)(C)C)C(C)C (stereo not given in full) (Boc-V[ξNMeV][NMeV]P[NMeF][ξNMeN][NMeA]-OMe) ?
> 50 µM (inactive)

Which GI50 is listed for C=CCN1C(=O)CS/C1=N/NC(=O)C(O)(c1ccccc1)c1ccccc1 ?
> 10 µM (inactive)

Which GI50 is listed for CC1CCCc2c(-c3ccc(Cl)cc3)nc(N)c(C#N)c21 (stereo not given) ?
42.1 µM (inactive)

Which GI50 is listed for NC(=O)NNC(=O)c1nc[nH]c1[N+](=O)[O-] ?
> 100 µM (inactive)

Which GI50 is listed for OCc1ccc(C2CC(c3ccco3)=NN2c2ccccc2)o1 (stereo not given) ?
> 100 µM (inactive)

Which GI50 is listed for CC(=O)NC(C)(C)C1CCC(C)CC1 (stereo not given) ?
> 100 µM (inactive)

Which GI50 is listed for CSc1ccc(NC(=O)CCl)cc1 ?
6.38 µM (inactive)

---

tested on: M14; test: NCI tumour cell line growth inhibition, 48 h
Active and inactive are the calls of the source. Rule as the data show it: active = GI50 up to about 1.1 µM and inactive = higher.
Endpoint: GI50

Which GI50 is listed for c1cc(CNCCN2CCNCC2)ccn1 ?
> 100 µM (inactive)

Which GI50 is listed for Cc1cc(NC2=CC(=O)C(=O)c3ccccc32)no1 ?
14.8 µM (inactive)

Which GI50 is listed for CCCCC(=O)c1c(O)ccc2c(C)cc(=O)oc12 ?
> 100 µM (inactive)

Which GI50 is listed for CC(=O)[C@]12OC(=O)C3=C1[C@H](CC[C@@H]3C)[C@@H](C)C[C@H]2C=C(C)C ?
8.39 µM (inactive)

Which GI50 is listed for CCN(CC)CC(=N)N(CC)c1ccccc1 ?
> 100 µM (inactive)

Which GI50 is listed for CCC(C)(C)/C(CC(O)(C(F)(F)F)C(F)(F)F)=N\O ?
> 100 µM (inactive)

Which GI50 is listed for CC1=CC(=O)/C(=C/Nc2nc(-c3cccc([N+](=O)[O-])c3)cs2)C(=O)O1 ?
64.1 µM (inactive)

Which GI50 is listed for N#CC(C#N)=C1C(=Cc2ccc(OCCCCCCCCCCSSCCCCCCCCCCOc3ccc(C=C4C(=C(C#N)C#N)c5ccccc5C4=C(C#N)C#N)cc3)cc2)C(=C(C#N)C#N)c2ccccc21 ?
20.3 µM (inactive)

Which GI50 is listed for CCOC(=O)C(CC(C)C)NC(=O)CSc1nnc(COc2ccc(Cl)cc2)n1-c1ccccc1 (stereo not given) ?
18 µM (inactive)

Which GI50 is listed for COc1cc2cc(C(=O)N3CC(CCl)c4c3cc([N+](C)(C)Cc3ccc([N+](=O)[O-])n3C)c3ccccc43)[nH]c2c(OC)c1OC (stereo not given) ?
3.61 µM (inactive)

---

test system: NCI-H460; test: NCI tumour cell line growth inhibition, 48 h
Activity calls are given as the source filed them. Cut-off read from the data, not from the text of the source: active = GI50 up to about 1.1 µM and inactive = higher.
I would appreciate it if you answered using one of these outcomes: yes (active), no (inactive)

Recorded test outcome, item CC(C)(C)c1ccc(OC2CCO2)cc1 (stereo unspecified)
no

Recorded test outcome, item O=CN1CCN(C(=O)c2ccc(Cl)cc2)C1=S
no

Recorded test outcome, item CN1CCC/C1=C1\C(=O)c2cccn2C1=O
no

Recorded test outcome, item Cc1cc2c(cc1Cl)SC(c1ccccc1O)NS2(=O)=O (stereo unspecified)
no

Recorded test outcome, item COc1cccc(C2c3cc4c(cc3OC(N3CCCC3)C2C)OCO4)c1OC (stereo unspecified)
no

Recorded test outcome, item CO/C(=N\N=C\c1ccc(OC)cc1OC)c1ccncc1
no

Recorded test outcome, item Cc1cc(Br)cc(C)c1NC(=O)C(=O)Nn1c(S)nc2ccccc2c1=O
no

Recorded test outcome, item C[C@H]1C/C=C/[C@H]2[C@@H]3O[C@]3(C)[C@@H](C)[C@H]3[C@H](Cc4ccccc4)NC(=O)[C@]32OC(=O)O/C=C/[C@@](C)(O)C1=O
yes

Recorded test outcome, item O=Cc1ccc(CCl)cc1
no

Recorded test outcome, item CCCCCCCCCCCCC(CCCCCCCCCCCC)OP(=O)(O)O
no

Recorded test outcome, item CC(=O)c1sc(=N)n(-c2c(C)cccc2C)c1C
no

---

test system: M19-MEL; assay: NCI tumour cell line growth inhibition, 48 h
Active and inactive are the calls of the source. Rule as the data show it: active = GI50 up to about 1.1 µM and inactive = higher.
I would appreciate it if you answered using one of these outcomes: True = active, False = inactive

Recorded test outcome, item CCOC(=O)[C@H](CCCNC(=O)OC(C)(C)C)NCc1ccc(OC)c(OC)c1
False

Recorded test outcome, item COc1ccc2c(c1)c1c3n2CCNN=C3CCC1
False

Recorded test outcome, item COc1cc(/C=N\O[Si](C)(C)C(C)(C)C)ccc1O[Si](C)(C)C(C)(C)C
False

Recorded test outcome, item CCO/C=C1\N=C(c2ccccc2Br)OC1=O
False

Recorded test outcome, item C[C@H]1C/C=C/[C@H]2[C@@H]3O[C@]3(C)[C@@H](C)[C@H]3[C@H](Cc4ccccc4)NC(=O)[C@]32OC(=O)O/C=C/[C@@](C)(O)C1=O
True

---

system: EKVX; assay: NCI tumour cell line growth inhibition, 48 h
Activity calls are given as the source filed them. No stated cut-off is given here; in the data, active = GI50 up to about 1.1 µM and inactive = higher.
Endpoint: GI50

Which GI50 is listed for C=CCn1c(N)c(C#N)c(C#N)c1CCC ?
42.7 µM (inactive)

Which GI50 is listed for BrC1=C(Br)C2(SCCS2)[C@H]2C[C@@H]1c1ccccc12 ?
36.9 µM (inactive)

Which GI50 is listed for C/N=c1\ss/c(=N\C(=S)N(C)C)n1C ?
> 100 µM (inactive)

Which GI50 is listed for CC1(C)OCC(/C=C\C(O)CC2(C)OCCO2)CO1 (stereo not given) ?
> 100 µM (inactive)

Which GI50 is listed for CC(C)(C)OC(=O)[C@@H]1ON2O[C@H](OC3CCCC3(c3ccccc3)c3ccccc3)C[C@H]3OC(=O)[C@@H]1[C@H]32 (stereo not given in full) ?
73.5 µM (inactive)

Which GI50 is listed for O=[N+]([O-])c1ccc(C2c3c(O)nc(O)nc3Oc3nc(O)nc(O)c32)cc1 ?
> 100 µM (inactive)

Which GI50 is listed for COc1cc(C2c3cc4c(cc3OC(N3CCCCC3)C2C)OCO4)cc(OC)c1OC (stereo not given) ?
10.3 µM (inactive)

Which GI50 is listed for O=C(NCCCl)N(O)C(=O)Nc1ccccc1 ?
> 100 µM (inactive)

Which GI50 is listed for Cc1cccc(Cl)c1NC(=O)c1cccc([N+](=O)[O-])c1O ?
39.6 µM (inactive)

Which GI50 is listed for CCOC(=O)C1(C(=O)OCC)CCCN1C(=O)[C@H](CNC(=O)OC(C)(C)C)NC(=O)OCc1ccccc1 ?
> 100 µM (inactive)

These entries and their values trace back to ChEMBL document CHEMBL1201862.
